Tested on: MCF10A
Experiment Description: one-nucleolus phenotype percent effect (relative to siNT 0% and siNOL11 100%); higher = more cells with one nucleolus (ribosome biogenesis inhibition)
Experimental Conditions: 20 nM; 72 h
For each of the sequences below, state its one-nucleolus phenotype percent effect.
One number for each entry, in %.

Some solved cases for reference:
GCUCUGACUUUAUUGCACUACU [hsa-miR-301a-5p]: -23.6
UUCACAUUGUGCUACUGUCUGC [hsa-miR-130a-5p]: -14.6
UAACCCUGUCCUCUCCCUCCCAG [hsa-miR-6732-3p]: -9.42
AAGUGCUGUCAUAGCUGAGGUC [hsa-miR-512-3p]: -17.8
UCCCACUACUUCACUUGUGA [hsa-miR-4301]: -19.4

# input for lookup
Entry under test: CUGUCCUAAGGUUGUUGAGUU [hsa-miR-676-3p] . Its one-nucleolus phenotype percent effect was -12
